Attribution: PubChem BioAssay AID1159580

- experimentNotes: chemical genetic growth profiling, strain panel (AID 1159580);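 also: tested at 20 µM; growth read once vehicle control cultures reached saturation at 30 °C; 1 = growth at the plate median or of vehicle wells; lower values mean less growth of the strain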
- cond: S. cerevisiae deletion strains, growth OD, locus YHR079C, strain IRE1
Out of some 5,500 compounds screened, about 2,000 (36%) were called active. Inconclusive results (about 18%) are left out. Rule as the data show it: active = normalized growth mostly below about 0.91 (no sharp cut-off); inconclusive = no clear call, values can overlap the other calls; inactive = mostly above about 0.92. The list shows a part of the results.
Outcome codes: 1 (yes) for active, 0 (no) for inactive

- COc1ccc(C(Cl)=C(c2ccc(OC)cc2)c2ccc(OC)cc2)cc1: 0 (no)
- CN(C)CCOc1ccc(/C(=C(/CCCl)c2ccccc2)c2ccccc2)cc1: 1 (yes)
- CCN(CC)CCNC(=O)c1cc(S(C)(=O)=O)ccc1OC: 0 (no)
- C[C@H]1[C@H]2CCC3C4CC=C5C[C@@H](N(C)C)CC[C@]5(C)C4CC[C@@]32CN1C (stereo partly drawn): 0 (no)
- CC(=O)Nc1ccc(S(=O)(=O)Nc2ccc([N+](=O)[O-])cc2)cc1: 0 (no)
- CCN(CC)CCOc1ccc(/C(=C(\Cl)c2ccccc2)c2ccccc2)cc1: 0 (no)
- COc1cc(C(=O)NCc2ccc(OCCN(C)C)cc2)cc(OC)c1OC: 0 (no)
- Cc1c(O)c(O)cc2c1CC=C1[C@@]2(C)CC[C@@]2(C)C3C[C@](C)(C(=O)O)CC[C@]3(C)CC[C@]12C (stereo partly drawn): 0 (no)
- CC(C)(CO)C(O)C(=O)NCCC(=O)NCCSSCCNC(=O)CCNC(=O)C(O)C(C)(C)CO (stereo not drawn): 0 (no)
- C=C(CC)C(=O)c1ccc(OCC(=O)O)c(Cl)c1Cl: 0 (no)
- Cc1ccsc1/C=C/C1=NCCCN1C: 0 (no)
- CC(=O)Nc1ccc(/C=C/[N+](=O)[O-])cc1: 0 (no)
- CN1C(CC(=O)c2ccccc2)CCCC1CC(O)c1ccccc1 (stereo not drawn): 0 (no)
- Cc1nn(Cc2ccc(C(=O)Sc3ccc(C(F)(F)F)cn3)o2)c(C)c1Br: 0 (no)
- O=C(c1ccccc1)c1cc(Cl)ccc1NC(=S)Nc1ccc(F)cc1: 0 (no)
- CSc1cc(-c2ccncc2)nc(-c2cccs2)c1: 0 (no)
- CC(C)NCC(O)c1ccc2ccccc2c1 (stereo not drawn): 0 (no)
- CC(=O)O[C@H]1C[C@@H](OC(C)=O)C(C)(C)C2C[C@@H](OC(C)=O)[C@@]3(C)C4=CC(=O)O[C@@H](c5ccoc5)[C@]4(C)CCC3[C@]21C (stereo partly drawn): 0 (no)
- CN[C@H]1C[C@@H](N)[C@H](O)[C@@H](O[C@@H]2O[C@H](CO)[C@@H]3OC4(O[C@@H]3[C@@H]2O)O[C@H](C(N)CO)[C@H](O)[C@H](O)[C@H]4O)[C@@H]1O (stereo partly drawn): 0 (no)
- O=[N+]([O-])/C=C/c1ccsc1: 1 (yes)
- CN(C)CCOC(C)(c1ccccc1)c1ccccn1 (stereo not drawn): 0 (no)
- NC[C@H](O)c1ccc(O)c(O)c1: 0 (no)
- CCOC(=O)/C(=N/Nc1c(Cl)cccc1Cl)c1csc(N)n1: 0 (no)
- C1CCN2C[C@@H]3C[C@H](CN4CCCC[C@@H]34)[C@H]2C1: 0 (no)
- OC[C@@H]1CCCN2CCCC[C@H]12: 0 (no)
- COC(C)(C)CCC[C@H](C)C/C=C/C(C)=C/C(=O)OC(C)C: 0 (no)
- Cn1c(CSCCOc2ccccc2)nnc1SCc1ccc(Cl)cc1Cl: 0 (no)
- O=C(O)c1ccccc1Nc1cccc(C(F)(F)F)c1: 1 (yes)
- OC[C@H]1O[C@H](OC[C@H]2O[C@@H](O)[C@H](O)[C@@H](O)[C@@H]2O)[C@H](O)[C@@H](O)[C@H]1O: 0 (no)
- CCN(CC)CCOc1ccc2c(c1)C(=O)c1cc(OCCN(CC)CC)ccc1-2: 0 (no)
- Cc1cc(Cl)ccc1NC(=S)NNC(=S)Nc1ccc(F)cc1: 0 (no)
- O=C(O)c1ccccc1Nc1cccc(OCc2ccc3ccccc3n2)c1: 0 (no)
- CC(C)c1ccc(NC(=S)NC(=O)c2ccccc2)cc1: 0 (no)
- Nc1ccc(S(=O)(=O)Nc2ccccn2)cc1: 0 (no)
- O=C(O)C1=CCNCC1: 0 (no)
- N#CCC(=O)NNC(=S)Nc1ccc(Cl)c(Cl)c1: 0 (no)
- C=CCOc1ccc(/C=C/[N+](=O)[O-])cc1: 1 (yes)
- COc1cc2c(c(OC)c1OC)-c1ccc(OC)c(=O)cc1[C@@H](NC(C)=O)CC2: 0 (no)

* * *

- experimentNotes: chemical genetic growth profiling, strain panel (AID 1159580);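 also: tested at 20 µM; growth read once vehicle control cultures reached saturation at 30 °C; 1 = growth at the plate median or of vehicle wells; lower values mean less growth of the strain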
- cond: S. cerevisiae deletion strains, growth OD, locus YHR094C, strain hxt1
In all, about 5,500 compounds went through this assay and about 2,000 (36%) were called active. Another 18% or so got no clear call; they are omitted. No stated cut-off is given here; in the data, active means normalized growth mostly below about 0.91 (no sharp cut-off); inconclusive means no clear call, values can overlap the other calls; inactive means mostly above about 0.92. The list shows a part of the results.
Outcomes: active, inactive

* COC(C)(C)CCC[C@H](C)C/C=C/C(C)=C/C(=O)OC(C)C | inactive
* CN/C(=C\[N+](=O)[O-])NCCSCc1ccc(CN(C)C)o1 | inactive
* C[C@H]1[C@H]2CCC3C4CC=C5C[C@@H](N(C)C)CC[C@]5(C)C4CC[C@@]32CN1C (some centres not stated) | inactive
* Oc1c(Cl)cc(Cl)c2cccnc12 | active
* CCN(CC)CCNC(=O)c1cc(S(C)(=O)=O)ccc1OC | inactive
* C=CC(C1=CC(=O)C=CC1=O)c1ccccc1 (configuration not stated) | inactive
* COc1cc(C(=O)NCc2ccc(OCCN(C)C)cc2)cc(OC)c1OC | inactive
* C=CC(C1=CC(=O)C(OC)=CC1=O)c1ccc(O)cc1 (configuration not stated) | inactive
* CC(=O)O[C@@H]1C[C@@]2(C)[C@H](c3ccoc3)C[C@H]3O[C@]32[C@]2(C)C(=O)C(O)=C3C(C)(C)C(=O)C=C[C@]3(C)C12 (some centres not stated) | inactive
* Nc1ncnc2c1ncn2C1O[C@H](COP(=O)(O)O)[C@@H](O)[C@H]1O (some centres not stated) | inactive
* COc1cc2c(c(OC)c1OC)-c1ccc(OC)c(=O)cc1[C@@H](NC(C)=O)CC2 | inactive
* CC(=O)OCC1(C)CCC2(C)CCC3(C)C4=CCc5c(cc(OC(C)=O)c(OC(C)=O)c5C)C4(C)CCC3(C)C2C1 (configuration not stated) | inactive
* C=CC(C1=CC(=O)C(OC)=CC1=O)c1ccccc1 (configuration not stated) | inactive
* O=C1C=CC2=C3c4cc(O)c(O)cc4CC3(O)COC2=C1O (configuration not stated) | inactive
* Nc1ccc(S(=O)(=O)Nc2ccc(Cl)nn2)cc1 | inactive
* CC1(C)C(O)CC(O)C2(C)C1CC(O)C1(C)C2CCC2(C)C(c3ccoc3)CC3OC321 (configuration not stated) | inactive
* COc1ccccc1OCCNCC(O)COc1cccc2[nH]c3ccccc3c12 (configuration not stated) | inactive
* CS(=O)(=O)CCCCN=C=S | active
* CCN(CC)CCOc1ccc2c(c1)C(=O)c1cc(OCCN(CC)CC)ccc1-2 | inactive
* Oc1ccc(Cl)c2cccnc12 | active
* CN1C(CC(=O)c2ccccc2)CCCC1CC(O)c1ccccc1 (configuration not stated) | inactive
* CCCC1O[C@@H]2CC3C4CCC5=CC(=O)C=CC5(C)C4[C@@H](O)CC3(C)[C@]2(C(=O)CO)O1 (some centres not stated) | inactive
* O=C(O)/C=C/C=C/c1ccccc1 | active
* OC[C@@H]1CCCN2CCCC[C@H]12 | inactive
* Cc1c(O)c(O)cc2c1CC=C1[C@@]2(C)CC[C@@]2(C)C3C[C@](C)(C(=O)O)CC[C@]3(C)CC[C@]12C (some centres not stated) | inactive
* C=CC(C1=CC(=O)C(OC)=CC1=O)c1ccc(OC)cc1 (configuration not stated) | inactive
* CC(C)(C)NCC(O)c1ccccc1Cl (configuration not stated) | inactive
* COC(=O)Oc1ccccc1C(=O)O | inactive
* O=C1C=CC2=C3c4cc(O)c(O)cc4C[C@@]3(O)COC2=C1 | inactive
* CC(=O)O[C@H]1C[C@@H](OC(C)=O)C(C)(C)C2C[C@@H](OC(C)=O)[C@@]3(C)C4=CC(=O)O[C@@H](c5ccoc5)[C@]4(C)CCC3[C@]21C (some centres not stated) | inactive
* C=C[C@@H](C1=CC(=O)C(OC)=C(OC)C1=O)c1ccccc1 | active
* CN(C)CCOC(C)(c1ccccc1)c1ccccn1 (configuration not stated) | inactive
* CC(=O)OC1CC(OC(C)=O)C2(C)C(CC(OC(C)=O)C3(C)C2CCC2(C)C(c4ccoc4)CC4OC423)C1(C)C (configuration not stated) | inactive
* O=C(O[C@@H]1Cc2c(O)cc(O)cc2O[C@@H]1c1cc(O)c(O)c(O)c1-c1c([C@H]2Oc3cc(O)cc(O)c3C[C@H]2O)cc(O)c(O)c1O)c1cc(O)c(O)c(O)c1 | active
* CC(=O)Nc1ccc(S(=O)(=O)Nc2ccc([N+](=O)[O-])cc2)cc1 | inactive
* O=C(O)c1ccccc1Nc1cccc(C(F)(F)F)c1 | inactive
* COc1ccc(C(Cl)=C(c2ccc(OC)cc2)c2ccc(OC)cc2)cc1 | inactive
* Nc1nc2c(ncn2C2C[C@H](O)[C@@H](CO)O2)c(=O)[nH]1 (some centres not stated) | active
* O=C(CCCCCCCCCCCCC1CCCC1)Nc1ccc(S(=O)(=O)c2ccc(NC(=O)CCCCCCCCCCCCC3CCCC3)cc2)cc1 | inactive
* Nc1ncnc2c1ncn2[C@@H]1O[C@H](CO)[C@@H](O)[C@H]1O | inactive
* CC(C)N(C(=O)SCC(Cl)=C(Cl)Cl)C(C)C | inactive
* O=C(O)CCC(=O)C(=O)O | inactive
